Provide the reported Activity of each item.
test system: FL5.12; test: Downregulation of CD98 expression level in mouse FL5.12A cells at 2.5 uM measured at 3 hrs by flow cytometric analysis; format: functional
Expressed in %, but write only the number.

Fill in: Activity of CCCCCCCCCC/C=C/c1ccc(CO[C@H]2CN[C@H](CO)C2)cc1.Cl is ___
40

Fill in: Activity of CCCCCCCCCCCC/C=C/c1ccc(CO[C@H]2CN[C@H](CO)C2)cc1.Cl is ___
20

Fill in: Activity of CCCCCCCCc1ccc(CCC(N)(CO)CO)cc1 is ___
68

Fill in: Activity of CCCCCCCCc1ccc(CO[C@H]2CN[C@H](CO)C2)cc1.Cl is ___
48

Fill in: Activity of CCCC/C=C/c1ccc(CO[C@@H]2CN[C@@H](CO)C2)cc1.Cl is ___
30

Fill in: Activity of CCCCCCCCCCCCc1ccc(CO[C@H]2CN[C@H](CO)C2)cc1.Cl is ___
14

Fill in: Activity of CCCCCCCCC/C=C/CO[C@@H]1CN[C@@H](CO)C1.Cl is ___
34

Fill in: Activity of CCCCCC/C=C/c1ccc([C@H]2CCN[C@@H]2CO)cc1.Cl is ___
58

Fill in: Activity of CCCCCCCCc1ccc([C@@H]2CCN[C@H]2CO)cc1.Cl is ___
47

Fill in: Activity of CCCCCCCCCCCCCCC[C@@H](O)[C@@H](N)CO [DIHYDROSPINGOSINE] is ___
47

These data points were gathered from ChEMBL document CHEMBL4425177.
